- Tested on: RXF 393 renal
- MEASUREMENT_PROTOCOL: NCI-60 one-dose screen, 48 h (100 = growth as untreated, 0 = no growth, -100 = all killed)
- CONDITION_PARAMETERS: 10 µM unless noted
The panel holds about 83,000 compounds, 20% with a hit somewhere; the sample as a whole holds those more often.
Lab note: anything with growth at or over 40% counts as rule met; the rest go in rule not met.

## Input Dear colleague, could you confirm whether Nc1ccc2c(c1)C(=O)NC2=O has growth at or above 40%?
## Output rule met

## Input Dear colleague, could you confirm whether CN1Cc2c(cc(CN3CCCCC3)n2C)C(c2ccc(Br)cc2)C1 (stereo not given) has growth at or above 40%?
## Output rule met

## Input Dear colleague, could you confirm whether Nc1c(C(=O)Nc2cccc3c2OCCO3)sc2nc3c(cc12)C(=O)CCC3 has growth at or above 40%?
## Output rule not met

## Input Dear colleague, could you confirm whether Nc1c(C(=O)Nc2cccc3c2OCCO3)sc2nc3c(cc12)CN(Cc1ccccc1)CC3 has growth at or above 40%?
## Output rule met

---

For each record, write down the corresponding growth.
- Test system: KM12 colon
- MEASUREMENT_PROTOCOL: NCI-60 one-dose screen, 48 h (100 = growth as untreated, 0 = no growth, -100 = all killed)
- CONDITION_PARAMETERS: 10 µM unless noted
This is part of a sample that, as a whole, favours compounds with a hit. Of some 83,000 tested, about 20% had one in any assay.
Numbers only, in %.

[
  {
    "COMPOUND": "Cc1ccc(-c2nc(/C=N/Nc3cc(C)nc4ccc(Br)cc34)c(C)o2)cc1",
    "growth, %": -39.9
  },
  {
    "COMPOUND": "COc1cc(C2CC(=O)Nc3c2c(C)nn3-c2nc3ccccc3[nH]2)cc(OC)c1OC (centres undefined)",
    "growth, %": 123
  },
  {
    "COMPOUND": "O=C1Nc2ccc(Br)cc2C12CC(c1ccccc1)=NN2 (centres undefined)",
    "growth, %": 30.6
  },
  {
    "COMPOUND": "CCC(C)[C@@H]1NC(=O)[C@@H]2CCCN2C(=O)[C@H](Cc2ccccc2)NC(=O)[C@@H]2CCCN2C(=O)[C@H](Cc2ccccc2)NC(=O)[C@@H]2CCCN2C(=O)[C@H](Cc2ccccc2)NC1=O (some centres undefined)",
    "growth, %": 121
  },
  {
    "COMPOUND": "C=C1CC2(OC1=O)C(=O)Nc1ccccc12 (centres undefined)",
    "growth, %": 97.3
  },
  {
    "COMPOUND": "O=C(COCc1c(-c2ccccc2)no[n+]1[O-])Nc1ccc(C(=O)/C=C/c2ccc3c(c2)OCO3)cc1",
    "growth, %": 104
  },
  {
    "COMPOUND": "COc1cnc2c(c1)C(=O)c1c-2n(CCCN2CCN(C)CC2)c(=O)c2cc([N+](=O)[O-])ccc12",
    "growth, %": -29
  },
  {
    "COMPOUND": "O=C1C2CC=CCC2C(=O)N1CNc1ccc(Cl)cc1 (centres undefined)",
    "growth, %": 104
  },
  {
    "COMPOUND": "Cc1cc(N/N=C/c2nc(-c3ccc(Cl)cc3)oc2C)c2cc(Cl)ccc2n1",
    "growth, %": 53.6
  },
  {
    "COMPOUND": "O=C1NC(=O)C(CC(=O)n2c(-c3ccccc3)nc3ccccc32)C(=O)N1",
    "growth, %": 101
  }
]

Record growth for all entries; do not skip any.
1. CC1CN(Cc2ccco2)C(=S)N(c2ccccc2)C1=O (centres undefined)
2. O=C1C=CC(=O)c2c1nc1n2CCCC1
3. C[C@@]1(N2C(=O)OC[C@@H]2c2ccccc2)C(=O)N([C@H](CC(=O)N2CCC(N3CCCCC3)CC2)C(=O)NCc2cccc(C(F)(F)F)c2)[C@@H]1/C=C/c1ccccc1
4. CCOc1ccc(Nc2nc(-c3c(C)nc4ncccn34)cs2)cc1

## Output
1. 99.9
2. 75
3. 55.9
4. 6.58

Record growth for all entries; do not skip any.
1. Cc1[nH]n(-c2ccccc2)c2nc3nncc3c(-c3ccc(Cl)cc3)c12
2. CC/C=C\C[C@H](O)C/C=C1/C(=O)C=C[C@@H]1C/C=C\CCCC(=O)NC
3. COc1nc2c(cc1S(=O)(=O)c1ccccc1)CCc1c-2cnn1Cc1ccccc1

## Output
[97, -44.3, 27.7]

Record growth for all entries; do not skip any.
1. O=C(N/N=C/c1ccc(O)cc1O)c1cccnc1
2. O=S(=O)(NCCCNc1cc(-c2cn(-c3ccccc3)nc2-c2cccc(O)c2)ccn1)c1ccccc1

## Output
58.3
30.1

---

- Tested on: TK-10 renal
- MEASUREMENT_PROTOCOL: NCI-60 one-dose screen, 48 h (100 = growth as untreated, 0 = no growth, -100 = all killed)
- CONDITION_PARAMETERS: 10 µM unless noted
This is part of a sample that, as a whole, favours compounds with a hit. Of some 83,000 tested, about 20% had one in any assay.
Please use y for growth under 60% and n for everything else, ties included.

Example entries begin here.
[
  {
    "MOLECULE": "C=CC[N+]1(CCO)CCN=C1CCCCCCCCCCCCC (stereo unspecified)",
    "DISCRETE_LABEL": "y"
  },
  {
    "MOLECULE": "CCCNc1nc(SC)nc(-c2cccc(N)c2)c1C#N",
    "DISCRETE_LABEL": "n"
  },
  {
    "MOLECULE": "Cc1ccc2cnc(N)c(C#Cc3cncc(C(=O)Nc4ccc(CN5CCN(C)CC5)c(C(F)(F)F)c4)c3)c2c1",
    "DISCRETE_LABEL": "y"
  },
  {
    "MOLECULE": "CC/C=C\\C[C@H](O)C/C=C1/C(=O)C=C[C@@H]1C/C=C\\CCCC(N)=O",
    "DISCRETE_LABEL": "y"
  },
  {
    "MOLECULE": "CCOC(=O)C(Cc1cc(I)c(O)c(I)c1)NC(=O)c1ccccc1 (stereo unspecified)",
    "DISCRETE_LABEL": "n"
  },
  {
    "MOLECULE": "O=C(Nc1cccc2c1C(=O)c1cccc(Nc3cccc4c3C(=O)c3cccc(NC(=O)c5ccccc5)c3C4=O)c1C2=O)c1ccccc1",
    "DISCRETE_LABEL": "n"
  },
  {
    "MOLECULE": "c1ccc(-c2nc(N3CCOCC3)c3c4c(sc3n2)CCCCC4)nc1",
    "DISCRETE_LABEL": "y"
  },
  {
    "MOLECULE": "CCN(CC)CC(C)Nc1ccc([N+](=O)[O-])c2sc3ccccc3c(=O)c12 (stereo unspecified)",
    "DISCRETE_LABEL": "y"
  }
]

Switching to the query record.
## Input Consider COc1cc(C(=O)/C=C/c2c(C)n([O-])c3ccc(C)cc3[n+]2=O)cc(OC)c1OC . Does its growth lie strictly below 60%?
## Output y

---

- Tested on: NCI-H322M lung
- MEASUREMENT_PROTOCOL: NCI-60 one-dose screen, 48 h (100 = growth as untreated, 0 = no growth, -100 = all killed)
- CONDITION_PARAMETERS: 10 µM unless noted
The panel holds about 83,000 compounds, 20% with a hit somewhere; the sample as a whole holds those more often.
For each record, write down the corresponding growth.
One number for each entry, in %.

Completed entries (count: 8):
[
  {
    "COMPOUND": "CC1=N/C(=C\\c2cccc(Br)c2)C(=O)O1",
    "growth [%]": 106
  },
  {
    "COMPOUND": "COCCOc1ccc(-c2nc3ccc(-c4nc5ccc(N6CCN(C)CC6)cc5[nH]4)cc3[nH]2)cc1",
    "growth [%]": 17
  },
  {
    "COMPOUND": "O=C(/C=C\\c1ccc2ccccc2n1)c1cc(Cl)ccc1O",
    "growth [%]": 86.1
  },
  {
    "COMPOUND": "CCN(CC)C12CCCCC1(C)C(C#N)(C#N)C(C#N)=C(N)O2 (stereo not given)",
    "growth [%]": 91.3
  },
  {
    "COMPOUND": "COCCOC(=O)C1=C(C)NC(=S)NC1c1ccc2c(c1)OCO2 (stereo not given)",
    "growth [%]": 101
  },
  {
    "COMPOUND": "CSc1nc2sc3c(c2c(=O)n1-c1ccc(C(C)C)cc1)CCC(=O)C3",
    "growth [%]": 31.6
  },
  {
    "COMPOUND": "Clc1ccc(-c2nnc(COc3ccccc3Cl)o2)cc1",
    "growth [%]": 76.9
  },
  {
    "COMPOUND": "Cc1cc(N/N=C/c2nc(-c3ccc(Cl)cc3)oc2C)c2cc(Br)ccc2n1",
    "growth [%]": 72.5
  }
]

Record growth for all entries; do not skip any.
1. C=C1CCC2C3(C)COC(c4ccc(SC)cc4)OC3CCC2(C)C1C/C=C1/C(=O)OCC1O (stereo not given)
2. CCOC(=O)N1CCN(c2nc(Nc3cc(C)[nH]n3)c3ccccc3n2)CC1

## Output
102
88.5
